Test system: TRPC4 (transient receptor potential cation channel C4 beta), mouse
Procedure Details: positive allosteric modulators of mouse TRPC4, confirmation, cell-based, second round, Fluo-4, HEK293 TRPC4beta/mu-opioid, 1 µM (AID 2554)
Experimental Parameters: DAMGO EC20, Fluo-4 calcium flux, at 1 µM
Active and inactive are the calls of the source.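 Rule for the calls: active = primary screen hit whose fluorescence ratio, in both repeats, exceeds the weak agonist control mean by 3 SD; inactive = the rest.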
Classes used: y for active, n for inactive

>>> print(df.to_string())
                                    molecule  cat
 0  COc1cc2c3cc1Oc1cc(ccc1O)C[C@@H]1c4c(cc(OC)c(O)c4Oc4ccc(cc4)C[C@H]3N(C)CC2)CCN1C    n
 1    CCOC(=O)C1(CCc2ccccc2)CCN(Cc2ccco2)CC1    n
 2                   c1ccc2oc(N3CCNCC3)nc2c1    n
 3  CCN1CC2C3CCC(C)(O3)C2C1 (stereo not drawn)    n
 4                  Cn1c(N2CCNCC2)nc2ccccc21    n
 5        COc1ccc(CNCCc2c[nH]c3ccccc23)cc1OC    n
 6              CC(C)CNc1c2c(nc3ccccc13)CCC2    n
 7  Cc1ccc(C2CN(C)CC2C(=O)c2ccc(F)cc2)cc1 (stereo not drawn)    n
 8  CC(Cc1ccccc1)NCC(=O)Nc1cc(N(C)C)nc2ccccc12 (stereo not drawn)    n
 9            CCN1CCN(Cc2cc(Br)cc(Br)c2O)CC1    n
10  C#CCN1C(=O)C2(C(C#N)=C(N)OC(C)=C2C(=O)OCc2ccccc2)c2ccccc21 (stereo not drawn)    n
11  CCOC(=O)C1(c2ccccc2)CCN(CCC(=O)Nc2ccccc2OC)CC1    n
12  COc1cccc(O)c1CN1CCCC(C(=O)c2sccc2C)C1 (stereo not drawn)    n
13  CN(C)C1(CNC(=O)c2ccc(Cl)c(S(=O)(=O)NCc3ccco3)c2)CCCCC1    n
14  O=C(CCCN1CCC2(CC1)C(=O)NCN2c1ccccc1)c1ccc(F)cc1    n
15     CN1CCN(c2cccc3c2C(=O)c2ccccc2C3=O)CC1    y
16   CN1CCN(c2ccc([N+](=O)[O-])c3cccnc23)CC1    y
17  CCCCc1ncc(CN2CCCC(C(=O)c3ccc(SC)cc3)C2)[nH]1 (stereo not drawn)    n
18  CCN(CC)P(=O)(/C=C(\Cl)c1ccccc1)/C=C(\Cl)c1ccccc1    y
19  CCC(=O)OC1(c2cccc(C)c2)CC(C)N(C)CC1C (stereo not drawn)    n
20     O=C(Cc1ccccc1)N1CCN(Cc2cccc(Br)c2)CC1    n
21  CC1CN(c2ccc([N+](=O)[O-])c3cccnc23)CC(C)N1 (stereo not drawn)    n
22  CCOc1c(Cl)cc(CNC(C)C(O)c2ccccc2)cc1OC (stereo not drawn)    n
23  CC(N)Cc1c[nH]c2cc3c(cc12)OCCO3 (stereo not drawn)    n
24     Cn1cc[n+](C)c1P(=S)(c1ccccc1)c1ccccc1    n
25  Cc1ccc(-c2nc(N(C)C3CCN(C)CC3)c3ccccc3n2)cc1    y
26   COc1ccc(Br)cc1CN1CCN(C(=O)Cc2ccccc2)CC1    n
27           C[C@H]1OC[C@@H](C[N+](C)(C)C)O1    n
